TARGET_SYSTEM: Phosphodiesterase 3 (Homo sapiens, UniProt Q14432+Q13370)
ASSAY_COMMENT: Inhibition of phosphodiesterase 3 (PDE3) isolated from the dog aorta
Type: protein assay, Canis lupus familiaris
EXPERIMENTAL_CONTEXT: target entry is the homologue from another species
Each record is given Satisfied if its reported IC50 is strictly below 50 µM. Records at or above 50 µM are given Not satisfied.

Take a look at these entries with their results.
1) Cc1cc2c3c(c1)C(c1ccccc1)=N[C@@H](NC(=O)c1cc4ccccc4cn1)C(=O)N3CC2: Not satisfied
2) Nc1cc2c3c(c1)C(c1ccccc1)=N[C@@H](NC(=O)c1cc(Cl)c(N)c(Cl)c1)C(=O)N3CC2: Not satisfied
3) Nc1cc2c3c(c1)C(c1ccccc1)=N[C@@H](NC(=O)c1cnc4ccccc4c1)C(=O)N3CC2: Not satisfied
4) O=C(N[C@@H]1N=C(c2ccccc2)c2cccc3c2N(CC3)C1=O)c1ccncc1: Not satisfied

Task: IC50 under 50 µM? Item: CC(C)(C)OC(=O)Nc1cnccc1C(=O)N[C@@H]1N=C(c2ccccc2)c2cccc3c2N(CC3)C1=O
Result: Not satisfied

Task: IC50 under 50 µM? Item: CC(=O)Nc1cc2c3c(c1)C(c1ccccc1)=N[C@@H](NC(=O)c1ccncc1)C(=O)N3CC2
Result: Not satisfied

Task: IC50 under 50 µM? Item: Nc1cc2c3c(c1)C(c1ccccc1)=N[C@@H](NC(=O)c1c(Cl)cncc1Cl)C(=O)N3CC2
Result: Not satisfied
